A collection of molecules and their measured EC50
TESTED_SYSTEM: follicle-stimulating hormone (FSH) receptor (Rattus norvegicus, UniProt P20395)
Construct: endogenous in cells; host or cells: rat granulosa cells
Sequence (P20395 18-692): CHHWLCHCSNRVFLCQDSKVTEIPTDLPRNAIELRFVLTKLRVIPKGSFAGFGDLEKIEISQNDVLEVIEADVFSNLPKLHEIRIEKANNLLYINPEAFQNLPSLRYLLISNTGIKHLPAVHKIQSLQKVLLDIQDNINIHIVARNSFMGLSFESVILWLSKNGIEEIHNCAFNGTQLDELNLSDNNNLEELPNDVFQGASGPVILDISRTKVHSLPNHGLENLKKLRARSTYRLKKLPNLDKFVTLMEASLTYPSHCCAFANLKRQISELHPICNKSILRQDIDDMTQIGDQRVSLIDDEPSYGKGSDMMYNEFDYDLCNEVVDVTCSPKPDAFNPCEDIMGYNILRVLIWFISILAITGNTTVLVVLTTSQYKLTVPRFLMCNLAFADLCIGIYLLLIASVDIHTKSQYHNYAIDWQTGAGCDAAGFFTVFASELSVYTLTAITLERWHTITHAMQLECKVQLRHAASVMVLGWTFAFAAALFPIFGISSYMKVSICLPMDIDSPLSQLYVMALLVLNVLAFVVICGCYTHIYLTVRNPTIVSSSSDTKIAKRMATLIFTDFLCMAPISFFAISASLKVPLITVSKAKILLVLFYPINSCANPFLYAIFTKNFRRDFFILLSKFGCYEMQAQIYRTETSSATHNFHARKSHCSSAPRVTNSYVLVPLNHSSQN
ASSAY_INFO: Rat granulosa EC50 FSH (Assay B)
Assay type: cell-based
ASSAY_CONTEXT: rat granulosa cells; Table 1

Example cases with answers are listed next.
molecule="Cc1ccc(C(=O)Nc2cc(C(=O)NCCCN3CCCC3=O)ccc2N2CCN(c3ccccc3C)CC2)o1 [Compound 6]" tested_system="follicle-stimulating hormone (FSH) receptor (Rattus norvegicus, UniProt P20395)" test_result="100 to 1000 nM"
molecule="Cc1ccccc1N1CCN(c2ccc(C(=O)NCCCN3CCCC3=O)cc2NC(=O)c2coc(C3CC3)n2)CC1 [Compound 105]" tested_system="follicle-stimulating hormone (FSH) receptor (Rattus norvegicus, UniProt P20395)" test_result="100 to 1000 nM"
molecule="Cc1ccccc1N1CCN(c2ccc(C(=O)NCCCN3CCOC3=O)cc2NC(=O)c2ccco2)CC1 [Compound 155]" tested_system="follicle-stimulating hormone (FSH) receptor (Rattus norvegicus, UniProt P20395)" test_result="1000 to 10000 nM"

Recorded EC50 of Cc1ccc(C(=O)Nc2cc(C(=O)NCCCN3CCCC3=O)ccc2N2CCN(c3ccccc3C)CC2)cc1 [Compound 35] , please. 1000 to 10000 nM
